assay: inhibition of PEG-3 promoter activity – cell-based, HeLa, luciferase luminescence, primary screen (AID 588405); details: HeLa PEG-Prom luciferase reporter, overnight, at 20 µM, active compounds read high
In all, about 360,000 compounds went through this assay and about 6,200 (1.7%) were called active. Only a selection was taken, and actives are over-represented in it overall.
Task for the reader: assign each of the following molecules its reported inhibition.
Give bare numbers, in %.

Could you report inhibition for every entry in the following list?
1. Cc1ccc(-c2cnc(C(O)c3cc(Cl)cc(Cl)c3)[nH]2)cc1 (stereo unspecified)
2. CCc1ccc(CNC(=O)C2CC(=O)N(CCc3ccc(C)cc3)C2)cc1 (stereo unspecified)
3. CC(=O)c1ccc(-c2cnc3c(NC=O)cc(-c4cccc(NS(C)(=O)=O)c4)cn23)cc1
4. Cc1ccc(NC(=O)N2CCC(C(=O)NCc3ccc(F)cc3)CC2)cc1

37.2
7.77
48.1
6.32

Could you report inhibition for every entry in the following list?
1. COC(=O)c1ccc(/C=C2/C(=O)Oc3ccccc32)cc1
2. COc1ccc(Nc2nc(-c3cccnc3)nc3ccccc23)cn1

11.1
53.5

Could you report inhibition for every entry in the following list?
1. CCC(C)(C)c1ccc(Oc2ccc(NC(=O)COC(=O)C3=COCCO3)cc2)cc1
2. O=C(C[C@H]1C/C=C\C[C@@H](NC(=O)OCC2c3ccccc3-c3ccccc32)C(=O)O[C@@H](c2ccccc2)CNC1=O)N[C@H](CO)Cc1ccccc1
3. CC(=O)c1cc(CN2CCC(C(=O)Nc3cccc(-c4cscn4)c3)CC2)cs1

1: 11.8; 2: 67.1; 3: 2.3

Could you report inhibition for every entry in the following list?
1. CN(C)c1cccc(NC(=O)c2ccc(-c3ccc(F)c(F)c3)c3ccoc23)c1
2. C=CCc1cccc2cc(C(=O)N3CCN(C(=O)OCC)CC3)c(=O)oc12

[-43.1, 22.4]
